src = PubChem BioAssay (NCATS)

Tested on: CP185
Test: qHTS profiling for inhibitors of Plasmodium falciparum proliferation (AID 504749); note: nearly all actives have a fitted effect of over 60% in size
Settings: P. falciparum in erythrocytes, SYBR Green DNA, 72 h; series mostly up to 28.7 µM
Records with an inconclusive call do not appear. Active and inactive are the calls of the source. Calls come from the whole dose curve; as a rule, active = well fitted inhibition curve with a large enough effect; inconclusive = small, poorly fitted or top-dose-only effect; inactive = flat fitted curve, though single readings scatter.
Write down one outcome, taken from active, inactive

Completed entries (count: 2):
compound	tgt	class-name
CCCCCCCCCCCCCCCC(=O)OC[C@H](O)[C@H]1OC[C@@H](O)[C@@H]1O	CP185	inactive
CCC(C(=O)O)C1OC(C(C)C(O)C(C)C(=O)C(CC)C2OC3(C=CC(O)C4(CCC(C)(C5CCC(O)(CC)C(C)O5)O4)O3)C(C)CC2C)C(C)CC1C (stereo not drawn)	CP185	active

Incoming: Each compound tested received a call. Report the one for CN(C)CC[C@@](O)(c1ccccc1)c1ccccc1Cl .
Outgoing: active
